The measured values listed here are drawn from patent US8431597B2.

Each entry below carries its reported inhibition at 2 µM.
- target or system: Smoothened (SMO) (Mus musculus, UniProt P56726)
- Construct: C3H10T1/2 cells (ATCC #CCL-226) were split and seeded; endogenous in cells; host or cells: C3H10T1/2 (ATCC #CCL-226)
- Sequence (P56726 33-793): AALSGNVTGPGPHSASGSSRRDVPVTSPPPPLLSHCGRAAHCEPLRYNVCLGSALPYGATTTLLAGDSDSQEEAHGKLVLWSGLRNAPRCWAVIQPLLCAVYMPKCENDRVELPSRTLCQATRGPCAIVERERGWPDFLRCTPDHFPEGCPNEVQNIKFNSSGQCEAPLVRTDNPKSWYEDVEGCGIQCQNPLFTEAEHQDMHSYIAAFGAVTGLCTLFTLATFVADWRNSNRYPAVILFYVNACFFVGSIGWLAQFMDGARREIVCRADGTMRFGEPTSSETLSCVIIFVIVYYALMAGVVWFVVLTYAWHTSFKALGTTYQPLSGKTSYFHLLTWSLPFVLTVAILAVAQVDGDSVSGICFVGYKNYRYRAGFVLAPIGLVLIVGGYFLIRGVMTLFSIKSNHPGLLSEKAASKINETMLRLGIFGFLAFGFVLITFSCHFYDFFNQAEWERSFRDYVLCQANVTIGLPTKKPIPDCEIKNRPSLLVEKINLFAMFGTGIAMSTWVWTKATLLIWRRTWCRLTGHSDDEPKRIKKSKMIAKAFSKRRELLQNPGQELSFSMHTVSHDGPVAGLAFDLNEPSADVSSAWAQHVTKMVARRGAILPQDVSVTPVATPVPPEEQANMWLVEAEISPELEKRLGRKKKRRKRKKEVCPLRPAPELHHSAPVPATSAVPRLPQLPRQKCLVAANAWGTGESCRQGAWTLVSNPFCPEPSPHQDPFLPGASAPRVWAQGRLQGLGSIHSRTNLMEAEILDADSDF
- assay method text: Smoothened (SMO)/Sonic Hedgehog (SHh) Transient Transcriptional Activation Assay (Gli-luciferase reporter in C3H10T1/2 cells)
- Type: cell-based, murine
- cond: C3H 10T1/2, 2 μM compound; transfected C3H10T1/2 cells, recombinant human SHh 250 ng/mL, 20 hours, luciferase readout; read-out: SMO CELL % INHIBITION @ 2 μM
Structures can show the parent of a compound that is named as a salt.
experimental endpoint: inhibition at 2 µM (%)

> print(dat)
                                    molecule  experimental.result
 1  COc1ccc(NC(=O)N[C@@H]2CCN(C)[C@@H](c3nc4cc(C#N)ccc4[nH]3)C2)cn1 [Example 134, hydrochloride]                  105
 2  CN1CC[C@@H](NC(=O)c2ccc3c(c2F)OCCO3)C[C@@H]1c1nc2cc(Cl)ccc2[nH]1                  101
 3  Cc1ccc(NC(=O)N[C@@H]2CCN(C)[C@@H](c3nc4ccccc4[nH]3)C2)c(C)n1 [Example 48, hydrochloride]                  105
 4  Cc1ccc2[nH]c([C@H]3C[C@H](NC(=O)Nc4ccc(C)nc4)CCN3C3CCC3)nc2c1                  107
 5  CC(C)(C)OC(=O)N1C[C@H](NC(=O)Nc2ccc(Cl)c(C(F)(F)F)c2)C[C@H]1c1nc2ccccc2[nH]1                 63.1
 6  CN1CC[C@@H](NC(=O)Cn2nc3ccccc3n2)C[C@@H]1c1nc2ccccc2[nH]1 [Example 106, trifluoroacetate]                 94.5
 7  CN1CC[C@@H](NC(=O)Nc2ccc(F)nc2)C[C@@H]1c1nc2ccccc2[nH]1 [Example 32, hydrochloride]                  107
 8  Cc1ccc2[nH]c([C@H]3C[C@H](NC(=O)Nc4ccc(C#N)cc4)CCN3C)nc2c1 [Example 36, hydrochloride]                  107
 9  Cc1cc(C(=O)N[C@@H]2CCN(C)[C@@H](c3nc4ccccc4[nH]3)C2)n(C(C)(C)C)n1 [Example 124, trifluoroacetate]                 50.6
10  COc1cccc(C(=O)N[C@@H]2CCN(C)[C@@H](c3nc4ccccc4[nH]3)C2)c1 [Example 112, trifluoroacetate]                 81.7
11  CN1CC[C@@H](NC(=O)c2ccc3c(c2Cl)OCCO3)C[C@@H]1c1nc2cc(Cl)ccc2[nH]1                  106
12  Cc1ccc2[nH]c([C@H]3C[C@H](NC(=O)Nc4ccc(C)nc4)CCN3C)nc2c1 [Example 130, hydrochloride]                  106
